Target entity: Neuropeptide Y receptor type 1 (Homo sapiens, UniProt P25929)
Sequence (P25929 whole entry): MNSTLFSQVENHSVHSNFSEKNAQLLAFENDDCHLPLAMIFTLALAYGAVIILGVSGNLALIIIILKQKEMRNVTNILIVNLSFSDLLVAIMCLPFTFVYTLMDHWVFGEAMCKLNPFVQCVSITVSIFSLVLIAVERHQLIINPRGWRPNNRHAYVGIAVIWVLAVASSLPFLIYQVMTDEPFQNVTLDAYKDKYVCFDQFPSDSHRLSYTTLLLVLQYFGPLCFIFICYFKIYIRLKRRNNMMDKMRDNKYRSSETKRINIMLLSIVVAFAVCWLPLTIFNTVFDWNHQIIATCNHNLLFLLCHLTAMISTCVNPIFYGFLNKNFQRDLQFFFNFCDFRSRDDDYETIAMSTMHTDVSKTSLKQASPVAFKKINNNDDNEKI
Test summary: Displacement of [125I]-PYY from human recombinant NPY Y1 receptor overexpressed in membrane of Sf9 cells
Field: class. Source value: Ki. Ranges: bottom end = under 7 nM, midrange = from 7 nM up to 40 nM, top end = 40 nM and over

{"Smi": "COc1cc(Cl)c(-c2c(C)nn3c(NCCNCC(F)F)cc(C)nc23)c(Cl)c1", "Classification": "top end"}
{"Smi": "CCOc1cc(Cl)c(-c2c(C)nn3c(NCCNC4CCOCC4)cc(C)nc23)c(Cl)c1", "Classification": "bottom end"}
{"Smi": "COc1cc(Cl)c(-c2c(C)nn3c(NCCNC4CCOCC4)cc(C)nc23)c(Cl)c1", "Classification": "bottom end"}
{"Smi": "COc1ccc(CCNCCNc2cc(C)nc3c(-c4c(C)cc(C)cc4C)c(C)nn23)cc1", "Classification": "midrange"}
{"Smi": "Cc1cc(NCCNC2CCCC2)n2nc(C)c(-c3c(Cl)cccc3Cl)c2n1", "Classification": "midrange"}
{"Smi": "Cc1cc(C)c(-c2c(C)nn3c(NCCNC4CCCC4)cc(C)nc23)c(C)c1", "Classification": "midrange"}
{"Smi": "CCCOc1cc(Cl)c(-c2c(C)nn3c(NCCNC4CCOCC4)cc(C)nc23)c(Cl)c1", "Classification": "midrange"}
{"Smi": "COc1cc(Cl)c(-c2c(C)nn3c(NCC(C)(C)NC4CCOCC4)cc(C)nc23)c(Cl)c1", "Classification": "top end"}
